These entries and their values trace back to PubChem BioAssay AID1159580.

testMethodNotes: chemical genetic growth profiling, strain panel (AID 1159580);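 further: tested at 20 µM; growth read once vehicle control cultures reached saturation at 30 °C; 1 = growth at the plate median or of vehicle wells; lower values mean less growth of the strain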
studyConditions: S. cerevisiae deletion strains, growth OD, locus YKL068W, stronger effect = lower value
Screen size: about 5,500 compounds; about 2,000 (36%) were called active. Roughly 18% stayed inconclusive and do not appear here. Some of the results follow. Where a SMILES comes first, the peptide text is derived from it. The star is where a group is joined. For = O=C*
propertyName: normalized growth

Field: example entries. Status: answers known.
• CC1(C)CC[C@]2(C(=O)O)CC[C@]3(C)C(=CCC4[C@@]5(C)CC[C@@H](O)C(C)(C)C5CC[C@]43C)C2C1 (some centres undefined) = 1.21 [resistant] (active)
• Nc1c2ccccc2nc2ccccc12 = 0.988 (inactive)
• CC1(C)CC[C@]2(C)CC[C@]3(C)C(=CCC4[C@@]5(C)CC[C@H](O)C(C)(C)C5CC[C@]43C)C2C1 (some centres undefined) = 0.985 (inactive)

Q) Quick one: give measured normalized growth for O=C(COc1ccc(Cl)cc1)N1CCN(Cc2ccc3c(c2)OCO3)CC1
A) 0.983 (inactive)

Q) For the compound CC(=O)NC(C(=O)O)C(C)(C)SN=O (centres undefined) , give its measured normalized growth value.
A) 0.99 (inactive)

Q) Give the reported normalized growth for this compound. CC(C)(C#N)O[C@@H]1O[C@H](CO)[C@@H](O)[C@H](O)[C@H]1O
A) 0.998 (inactive)

Q) State, in one line, measured normalized growth of CSCCC(NC=O)C(=O)NC(Cc1ccccc1)C(=O)O (stereo not drawn) (For-Met-Phe-OH; configuration not given here)
A) 1.01 (inactive)

Q) // fetch normalized growth given entry COc1ccc2[nH]cc(CCN)c2c1
A) 0.986 (inactive)

Q) Output measured normalized growth for this item: C/C=C(/C)C(=O)OC1CCC2(C)C3CCC4C5(O)CC(O)C6(O)C(CN7CC(C)CCC7C6(C)O)C5(O)CC42OC13O (centres undefined)
A) 0.961 (inactive)

---

Readings of normalized growth for the listed molecules
testMethodNotes: chemical genetic growth profiling, strain panel (AID 1159580);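 further: tested at 20 µM; growth read once vehicle control cultures reached saturation at 30 °C; 1 = growth at the plate median or of vehicle wells; lower values mean less growth of the strain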
studyConditions: S. cerevisiae deletion strains, growth OD, locus YER111C, strain swi4, stronger effect = lower value
The whole screen tested about 5,500 compounds, of which about 2,000 (36%) were called active. Roughly 18% stayed inconclusive and do not appear here. The list shows a part of the results.
Write the number on its own, no unit after it.

Please review the following examples before continuing.
- O=C1C(O)=C(O)C(=O)C(O)=C1O: 0.991
- COc1cc(C(=O)O[C@H]2CC[C@@]3(C)[C@@H]4CC[C@H]5[C@]6(O)C[C@H](O)[C@@]7(O)[C@@H](CN8C[C@@H](C)CC[C@H]8[C@@]7(C)O)[C@]6(O)C[C@@]53O[C@]24O)cc(OC)c1OC: 1
- CCOC(=O)OC(C)OC(=O)C1N2C(=O)C(NC(=O)[C@H](N)c3ccccc3)C2SC1(C)C (some centres undefined): 0.985
- FC(F)(F)c1ccccc1-n1ccnc1: 0.999
- CCN1C[C@]2(OC(=O)c3ccccc3NC(C)=O)CCC(OC)[C@]34C1[C@H](CC23)[C@@]1(O)CC(OC)[C@H]2CC4C1(O)[C@H]2OC (some centres undefined): 0.986
- O=C(CNC(=O)c1ccc(Cl)cc1)NO: 1.01
- C/C=C(/C)C(=O)OC1CCC2(C)C3CCC4C5(O)CC(O)C6(O)C(CN7CC(C)CCC7C6(C)O)C5(O)CC42OC13O (centres undefined): 0.995
- CNC(=O)O/N=C\C(C)(C)SC: 1.02

Q) // fetch normalized growth given entry O=C(Nc1ccc(C(=O)O)c(O)c1)c1ccccc1
A) 0.992
